Reference source for all entries: patent US8802664B2

Molecular target: human H4 receptor (Homo sapiens, UniProt Q9H3N8)
Construct: expressed in transfected cells
Sequence (Q9H3N8 whole entry): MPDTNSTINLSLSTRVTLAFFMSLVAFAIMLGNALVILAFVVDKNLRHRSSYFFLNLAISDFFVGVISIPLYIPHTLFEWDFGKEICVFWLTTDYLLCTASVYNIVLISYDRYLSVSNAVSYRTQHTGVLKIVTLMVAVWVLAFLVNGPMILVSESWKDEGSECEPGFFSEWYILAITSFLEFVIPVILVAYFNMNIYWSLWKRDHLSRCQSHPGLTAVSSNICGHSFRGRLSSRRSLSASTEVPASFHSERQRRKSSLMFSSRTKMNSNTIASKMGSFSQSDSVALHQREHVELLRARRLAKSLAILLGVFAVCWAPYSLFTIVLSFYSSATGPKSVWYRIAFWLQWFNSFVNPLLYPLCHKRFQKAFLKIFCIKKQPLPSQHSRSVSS
Assay: [3H]Histamine binding on membranes of CHO cells stably expressing human H4 receptor
RECORDED METRIC: Ki or IC50 activity class

[[record]]
molecule = "CN1CCC(OC(c2cccc(-c3ccccc3CO)c2)c2nc3ccccc3[nH]2)CC1 (stereo not shown)"
recorded_metric = "Ki or IC50 activity class"
test_value = "< 1 µM"

[[record]]
molecule = "CN1CCC(OC(c2cccc(SCCCNC(=N)N)c2)c2nc3ccccc3[nH]2)CC1 (stereo not shown)"
recorded_metric = "Ki or IC50 activity class"
test_value = "< 0.03 µM"

[[record]]
molecule = "Cc1ccc(C(OC2CCN(C)CC2)c2nc3ccccc3[nH]2)c(F)c1F (stereo not shown)"
recorded_metric = "Ki or IC50 activity class"
test_value = "< 0.3 µM"

[[record]]
molecule = "CN1CCC(OC(c2cccc(SCCn3nccn3)c2)c2nc3ccccc3s2)CC1 (stereo not shown)"
recorded_metric = "Ki or IC50 activity class"
test_value = "< 0.3 µM"

[[record]]
molecule = "CN1CCC(OC(c2cccc(Br)c2)c2nc3ccccc3[nH]2)CC1 (stereo not shown) [Example 78]"
recorded_metric = "Ki or IC50 activity class"
test_value = "< 0.3 µM"

[[record]]
molecule = "CN1CCC(OC(c2cccc(OCCCN3CCN(C(=O)OC(C)(C)C)CC3)c2)c2nc3ccccc3[nH]2)CC1 (stereo not shown)"
recorded_metric = "Ki or IC50 activity class"
test_value = "< 1 µM"

[[record]]
molecule = "CN1CCC(OC(c2cccc(N3CCC(N)C3)c2)c2nc3ccccc3s2)CC1 (stereo not shown)"
recorded_metric = "Ki or IC50 activity class"
test_value = "< 0.3 µM"

[[record]]
molecule = "CN1CCC(OC(c2cccc(OCc3cccc(C(F)(F)F)c3)c2)c2nc3ccccc3s2)CC1 (stereo not shown)"
recorded_metric = "Ki or IC50 activity class"
test_value = "< 0.03 µM"

[[record]]
molecule = "CN1CCC(OC(c2cccc(SCCc3cnccn3)c2)c2nc3ccccc3s2)CC1 (stereo not shown)"
recorded_metric = "Ki or IC50 activity class"
test_value = "< 0.3 µM"

[[record]]
molecule = "CN1CCC(OC(c2cccc(C#CC3CCCNC3)c2)c2nc3ccccc3[nH]2)CC1 (stereo not shown)"
recorded_metric = "Ki or IC50 activity class"
test_value = "< 0.3 µM"

[[record]]
molecule = "CN1CCC(OC(c2cccc(OCc3cc(F)ccc3F)c2)c2nc3ccccc3s2)CC1 (stereo not shown)"
recorded_metric = "Ki or IC50 activity class"
test_value = "< 0.03 µM"

[[record]]
molecule = "CN1CC(COC(c2cccc(SCCCCN)c2)c2nc3ccccc3[nH]2)C1 (stereo not shown)"
recorded_metric = "Ki or IC50 activity class"
test_value = "< 0.03 µM"

[[record]]
molecule = "CN1CCC(OC(c2cccc(N3CCOCC3)c2)c2nc3ccccc3s2)CC1 (stereo not shown)"
recorded_metric = "Ki or IC50 activity class"
test_value = "< 0.3 µM"

[[record]]
molecule = "COc1ccc(-c2cccc(C(OC3CCN(C)CC3)c3nc4ccccc4[nH]3)c2)cc1 (stereo not shown)"
recorded_metric = "Ki or IC50 activity class"
test_value = "< 0.3 µM"

[[record]]
molecule = "CN1CCC(OC(c2cccc(SCCCCN)c2)c2nc3cc(F)c(F)c(F)c3[nH]2)CC1 (stereo not shown)"
recorded_metric = "Ki or IC50 activity class"
test_value = "< 0.03 µM"

[[record]]
molecule = "CN1CCC(NC(c2cccc(OCc3ccccc3)c2)c2nc3ccccc3s2)CC1 (stereo not shown)"
recorded_metric = "Ki or IC50 activity class"
test_value = "< 0.03 µM"

[[record]]
molecule = "COc1ccc(-c2cccc(C(NC3CCN(C)CC3)c3nc4ccccc4[nH]3)c2)cc1 (stereo not shown)"
recorded_metric = "Ki or IC50 activity class"
test_value = "< 0.3 µM"

[[record]]
molecule = "CN1CCC(OC(c2cccc(OCCCCN3CCOCC3)c2)c2nc3ccccc3[nH]2)CC1 (stereo not shown)"
recorded_metric = "Ki or IC50 activity class"
test_value = "< 1 µM"

[[record]]
molecule = "COc1ccc(COc2cccc(C(NC3CCN(C)CC3)c3nc4ccccc4[nH]3)c2)cc1 (stereo not shown)"
recorded_metric = "Ki or IC50 activity class"
test_value = "< 0.03 µM"

[[record]]
molecule = "CCCOc1cccc(C(OC2CCN(C)CC2)c2nc3ccccc3[nH]2)c1 (stereo not shown)"
recorded_metric = "Ki or IC50 activity class"
test_value = "< 1 µM"

[[record]]
molecule = "CN1CCC(OC(c2nc3ccccc3[nH]2)c2cc(O)ccc2F)CC1 (stereo not shown)"
recorded_metric = "Ki or IC50 activity class"
test_value = "< 0.03 µM"

[[record]]
molecule = "CN1CCC(OC(c2cccc(C#CCCCN)c2)c2nc3ccccc3s2)CC1 (stereo not shown)"
recorded_metric = "Ki or IC50 activity class"
test_value = "< 0.03 µM"

[[record]]
molecule = "CN1CCC(OC(c2cccc(C#CCCN)c2)c2nc3ccccc3s2)CC1 (stereo not shown)"
recorded_metric = "Ki or IC50 activity class"
test_value = "< 1 µM"

[[record]]
molecule = "CN1CCC(OC(c2nc3ccccc3[nH]2)c2c(O)cccc2Cl)CC1 (stereo not shown)"
recorded_metric = "Ki or IC50 activity class"
test_value = "< 0.03 µM"

[[record]]
molecule = "CN1CCC(OC(c2cccc(-c3cnc(O)nc3)c2)c2nc3ccccc3s2)CC1 (stereo not shown)"
recorded_metric = "Ki or IC50 activity class"
test_value = "< 0.3 µM"

[[record]]
molecule = "CN1CCC(OC(c2cccc(OCCN)c2)c2nc3ccccc3[nH]2)CC1 (stereo not shown)"
recorded_metric = "Ki or IC50 activity class"
test_value = "< 0.3 µM"

[[record]]
molecule = "CCOc1ccc(F)c(C(OC2CCN(C)CC2)c2nc3ccccc3[nH]2)c1F (stereo not shown)"
recorded_metric = "Ki or IC50 activity class"
test_value = "< 0.3 µM"

[[record]]
molecule = "CN1CCC(OC(c2cccc(SC(C)(C)CCO)c2)c2nc3ccccc3[nH]2)CC1 (stereo not shown)"
recorded_metric = "Ki or IC50 activity class"
test_value = "< 1 µM"

[[record]]
molecule = "Cc1c(F)cc(C(OC2CCN(C)CC2)c2nc3ccccc3[nH]2)c(O)c1F (stereo not shown)"
recorded_metric = "Ki or IC50 activity class"
test_value = "< 0.03 µM"

[[record]]
molecule = "CN1CCC(OC(c2cccc(-c3cccc(N)c3)c2)c2nc3ccccc3[nH]2)CC1 (stereo not shown)"
recorded_metric = "Ki or IC50 activity class"
test_value = "< 0.3 µM"

[[record]]
molecule = "CN1CCC(OC(c2cccc(OCCCCCN)c2)c2nc3ccccc3s2)CC1 (stereo not shown)"
recorded_metric = "Ki or IC50 activity class"
test_value = "< 0.03 µM"

[[record]]
molecule = "CN1CCC(OC(c2cccc(SCCCCCO)c2)c2nc3ccccc3[nH]2)CC1 (stereo not shown)"
recorded_metric = "Ki or IC50 activity class"
test_value = "< 0.3 µM"

[[record]]
molecule = "CN1CCC(OC(c2cccc(OC(F)(F)F)c2)c2nc3ccccc3s2)CC1 (stereo not shown)"
recorded_metric = "Ki or IC50 activity class"
test_value = "< 0.03 µM"

[[record]]
molecule = "CN1CCC(OC(c2nc3cc(F)c(F)cc3[nH]2)c2cc(OC(F)(F)F)ccc2F)CC1 (stereo not shown)"
recorded_metric = "Ki or IC50 activity class"
test_value = "< 0.3 µM"

